- Tested on: IL-10-induced JAK1/TYK2 signal pathway
- method notes: IL-10-induced JAK1/TYK2 signal pathway STAT3-Luc reporter gene assay in U2OS cells
- Format: cell-based, human
- measurement context: Homo sapiens; U2OS cells, STAT3-Luc reporter, IL-10 10 ng/mL; read-out: Half inhibition dose (IC50) on IL-10-induced JAK1/TYK2 signal pathway
pIC50: −log10 of the molar value.
Returns MET if the recorded pIC50 is greater than or equal to 9, and NOT MET otherwise.

| smiles data | answer label |
| --- | --- |
| CONC(=O)c1cnc(NC(=O)C2CC2)cc1Nc1ccc(F)cc1N(C)S(C)(=O)=O | NOT MET |
| CCONC(=O)c1cnc(Nc2cc(C)nc(C)n2)cc1Nc1cccc(-c2ncc(Cl)cn2)c1OC | MET |
